- assay-text: recombinant UMI read abundance after kanamycin selection (control-corrected) (log10(CPM+1)); higher = more efficient recombination; extreme values may be limits of the assay; sequences stand for … in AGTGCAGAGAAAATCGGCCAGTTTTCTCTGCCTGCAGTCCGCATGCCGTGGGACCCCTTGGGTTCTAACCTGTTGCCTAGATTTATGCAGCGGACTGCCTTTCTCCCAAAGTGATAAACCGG…AGGTTGGTTTCACT; site = the 11-nt donor;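 further: IS621 bridge recombinase in Escherichia coli cells against a fixed T5 target plasmid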
Record form. Attribute: recombinant UMI read abundance (log10). Fill in for each entry.
Form rule: numeric answer, no unit written next to it.

Ask: GET /values?readout=recombinant UMI read abundance (log10)&item= TGCAGTGCATGGACCGGTTTTCCCGGTAATCCGTATTTGTA (site TGCAGTGCTTA)
Result: 0.853

Ask: GET /values?readout=recombinant UMI read abundance (log10)&item= GTAATCGCATGGACCGGTTTTCCCGGTAATCCGTATTTGCG (site GTATTCGCTCG)
Result: 0.00488

Ask: GET /values?readout=recombinant UMI read abundance (log10)&item= CACGGGTCATGGACCGGTTTTCCCGGTAATCCGTATTTGCT (site CACGGGTCTAG)
Result: 2.17

Ask: GET /values?readout=recombinant UMI read abundance (log10)&item= GCGAATACATGGACCGGTTTTCCCGGTAATCCGTATTTGCT (site GCGAAGACTAG)
Result: 0

Ask: GET /values?readout=recombinant UMI read abundance (log10)&item= CTACCATCATGGACCGGTTTTCCCGGTAATCCGTATTTGAC (site CTAGTATCTGT)
Result: 0

Ask: GET /values?readout=recombinant UMI read abundance (log10)&item= GCCCGAGCATGGACCGGTTTTCCCGGTAATCCGTATTTGAA (site GCCCGAGCTTT)
Result: 1.82

Ask: GET /values?readout=recombinant UMI read abundance (log10)&item= AGTAACACATGGACCGGTTTTCCCGGTAATCCGTATTTGCA (site AGTAACACTTG)
Result: 2.13
